Test: Cytotoxicity against Huh7 cells by MTS assay
Assay type: cell-based
Settings: human, huh-7
testReadout: Activity

Illustrative cases are given below, each with its answer.
CCC[C@@]1(CC(=O)O)OCCc2c1[nH]c1c(Cl)ccc(Cl)c21    49 µM
CCC[C@]1(CC(=O)O)OCCc2c1[nH]c1c(Cl)ccc(Cl)c21    33 µM
CCC[C@]1(CC(=O)O)OCCc2c1[nH]c1c(C)cc(F)c(C#N)c21    > 50 µM

Asked: What measured Activity goes with CCC[C@@]1(CC(=O)O)OCCc2c1[nH]c1c(F)ccc(C#N)c21 ?
Given back: > 50 µM
